# TARGET_ENTITY: KAT8 Full length enzyme (Homo sapiens (Human), UniProt Q9H7Z6)
# Sequence (Q9H7Z6 whole entry): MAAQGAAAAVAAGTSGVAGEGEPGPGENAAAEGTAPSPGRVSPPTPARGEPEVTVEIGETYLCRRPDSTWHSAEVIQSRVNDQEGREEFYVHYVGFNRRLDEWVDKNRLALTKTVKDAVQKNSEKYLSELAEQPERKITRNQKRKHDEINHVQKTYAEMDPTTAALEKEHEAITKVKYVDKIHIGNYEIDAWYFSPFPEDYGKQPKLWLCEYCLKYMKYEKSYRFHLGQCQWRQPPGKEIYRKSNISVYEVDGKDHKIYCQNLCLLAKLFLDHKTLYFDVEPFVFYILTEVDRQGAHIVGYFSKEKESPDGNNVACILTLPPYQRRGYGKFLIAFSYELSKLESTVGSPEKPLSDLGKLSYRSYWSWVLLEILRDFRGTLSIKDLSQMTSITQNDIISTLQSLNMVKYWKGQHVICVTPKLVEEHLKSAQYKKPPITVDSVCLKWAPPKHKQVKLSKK
# PROCEDURE_TEXT: KAT8 assay (SAMDI-MS acetylation of H3 1-21 peptide)
# Assay type: biochemical
# EXPERIMENTAL_CONDITIONS: Morrison equation fit; replicate number in parentheses; read-out: KAT8 Ki (nM) (replicate number)
ASSAY_READOUT: Ki

* CCc1cc(Nc2cc3onc(NS(=O)(=O)c4ccc(C(=O)NCCCCCNC(=O)c5ccc(-c6nnc(C)nn6)cc5)cc4OC)c3cc2OC)[nH]n1 [Example 138] | > 13000 nM
* COc1cc2c(NS(=O)(=O)c3c(OC)cccc3OC)noc2cc1Nc1cc(OC)n(C)n1 [Example 104] | > 10900 nM

Below: the item to evaluate.
Consider the compound COc1cc2c(NS(=O)(=O)c3c(OC)cccc3OC)noc2cc1Nc1ncc(C)cn1 [Example 110] and give its recorded Ki.
> 13000 nM

----------
# TARGET_ENTITY: KAT6A Full length enzyme (Homo sapiens (Human))
# Sequence (Q92794 other isoform, or with tags, fused parts or gaps): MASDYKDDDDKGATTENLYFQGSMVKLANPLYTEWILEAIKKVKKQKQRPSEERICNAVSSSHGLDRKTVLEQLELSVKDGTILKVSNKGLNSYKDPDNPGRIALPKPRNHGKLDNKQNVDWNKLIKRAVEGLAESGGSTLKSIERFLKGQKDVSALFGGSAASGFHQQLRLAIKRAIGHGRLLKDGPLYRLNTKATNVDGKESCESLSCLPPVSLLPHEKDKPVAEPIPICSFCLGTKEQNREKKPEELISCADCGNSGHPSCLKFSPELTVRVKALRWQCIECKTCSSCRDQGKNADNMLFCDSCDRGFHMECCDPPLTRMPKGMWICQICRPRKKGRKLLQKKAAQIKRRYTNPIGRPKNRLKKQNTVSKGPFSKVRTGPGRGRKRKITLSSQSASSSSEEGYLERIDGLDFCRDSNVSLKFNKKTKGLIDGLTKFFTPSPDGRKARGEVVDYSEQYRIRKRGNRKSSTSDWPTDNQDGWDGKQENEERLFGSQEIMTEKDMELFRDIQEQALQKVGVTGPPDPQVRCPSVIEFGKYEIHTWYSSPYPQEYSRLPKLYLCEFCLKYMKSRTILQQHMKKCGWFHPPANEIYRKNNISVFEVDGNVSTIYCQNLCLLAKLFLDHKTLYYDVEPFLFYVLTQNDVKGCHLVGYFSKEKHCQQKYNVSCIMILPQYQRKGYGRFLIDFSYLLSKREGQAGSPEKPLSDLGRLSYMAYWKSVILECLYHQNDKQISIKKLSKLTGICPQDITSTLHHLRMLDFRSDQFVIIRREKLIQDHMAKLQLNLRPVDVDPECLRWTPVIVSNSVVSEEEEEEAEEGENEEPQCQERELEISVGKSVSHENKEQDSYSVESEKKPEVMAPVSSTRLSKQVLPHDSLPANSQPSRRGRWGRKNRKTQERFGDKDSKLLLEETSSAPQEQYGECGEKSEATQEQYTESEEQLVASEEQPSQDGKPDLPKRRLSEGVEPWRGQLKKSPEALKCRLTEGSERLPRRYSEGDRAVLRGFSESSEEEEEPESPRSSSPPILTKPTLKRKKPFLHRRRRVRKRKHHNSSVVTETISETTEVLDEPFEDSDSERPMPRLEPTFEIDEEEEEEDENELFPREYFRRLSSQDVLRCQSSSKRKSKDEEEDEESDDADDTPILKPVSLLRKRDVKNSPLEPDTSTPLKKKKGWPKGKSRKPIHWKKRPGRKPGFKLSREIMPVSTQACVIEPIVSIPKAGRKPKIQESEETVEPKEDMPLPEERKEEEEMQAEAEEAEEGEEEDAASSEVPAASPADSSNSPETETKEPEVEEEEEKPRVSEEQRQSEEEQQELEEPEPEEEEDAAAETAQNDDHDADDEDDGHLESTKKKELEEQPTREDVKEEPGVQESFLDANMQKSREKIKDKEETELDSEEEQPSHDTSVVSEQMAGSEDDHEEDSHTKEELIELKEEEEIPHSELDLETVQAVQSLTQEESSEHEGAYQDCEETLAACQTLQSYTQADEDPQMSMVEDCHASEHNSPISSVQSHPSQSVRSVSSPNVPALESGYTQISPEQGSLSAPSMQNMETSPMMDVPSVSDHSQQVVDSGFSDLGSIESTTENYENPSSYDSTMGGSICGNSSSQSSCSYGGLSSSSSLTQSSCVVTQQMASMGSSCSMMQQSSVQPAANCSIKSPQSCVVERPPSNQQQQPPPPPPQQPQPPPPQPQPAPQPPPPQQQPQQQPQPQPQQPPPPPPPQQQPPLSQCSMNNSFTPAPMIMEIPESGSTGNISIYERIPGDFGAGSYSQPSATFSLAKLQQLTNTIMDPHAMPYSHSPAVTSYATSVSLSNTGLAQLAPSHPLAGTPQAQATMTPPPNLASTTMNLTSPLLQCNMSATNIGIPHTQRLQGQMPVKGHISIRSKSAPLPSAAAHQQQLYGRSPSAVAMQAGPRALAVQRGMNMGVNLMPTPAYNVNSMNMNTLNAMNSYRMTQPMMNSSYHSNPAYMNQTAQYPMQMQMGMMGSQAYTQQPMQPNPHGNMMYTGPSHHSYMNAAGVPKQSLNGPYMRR
# PROCEDURE_TEXT: KAT6A assay (SAMDI-MS acetylation of H3 1-21 peptide)
# Assay type: biochemical
# EXPERIMENTAL_CONDITIONS: Morrison equation fit; replicate number in parentheses; read-out: KAT6A Ki (nM) (replicate number)
Checkbox rule: Ki lower than 1 nM = YES; Ki not lower than 1 nM = NO.

Solved entries (count: 6):
* COc1cc2c(NS(=O)(=O)c3c(OC)cc(-c4ncccn4)cc3OC)noc2cc1Nc1cc(C2CC2)n[nH]1 | NO
* COc1cc2c(NS(=O)(=O)c3c(OC)cccc3OC)noc2cc1Nc1cc([C@@H]2CC2(F)F)[nH]n1 (single isomer, unassigned) | NO
* COc1cc2c(NS(=O)(=O)c3c(OC)cccc3OC)noc2cc1Nc1cc(Cl)n[nH]1 | NO
* CCc1cc(Nc2cc3onc(NS(=O)(=O)c4cccc(-c5ccc(OC)cc5)c4)c3cc2OC)[nH]n1 | NO
* COc1cc2c(NS(=O)(=O)c3c(OC)cc(C4CC(F)CCN4C)cc3OC)noc2cc1Nc1cc(C2CC2)[nH]n1 (centres unmarked) [Example 193] | NO
* COc1cc2c(NS(=O)(=O)c3c(OC)cc(C4C[C@H](C)CN4C)cc3OC)noc2cc1Nc1cc(C2CC2)n[nH]1 (some centres unmarked) | YES

Dear colleague, could you confirm whether Ki of `COc1cccc(OC)c1S(=O)(=O)Nc1noc2cc(NC3CCC3)cc(OC)c12` falls below 1 nM? Thanks.
NO

Regarding COc1cc2c(NS(=O)(=O)c3c(OC)cc(C4CN(C)CCO4)cc3OC)noc2cc1Nc1cc(C2CC2)n[nH]1 (single isomer, unassigned) [Example 153] , kindly confirm whether its Ki is beneath 1 nM.
YES

Please state whether Ki is below 1 nM for COc1cc2c(NS(=O)(=O)c3c(OC)cc(C4CN(C)CCO4)cc3OC)noc2cc1Nc1cc(C2CC2)n[nH]1 (single isomer, unassigned) [Example 152]
YES

Below 1 nM on Ki? Entry `COc1cc2c(NS(=O)(=O)c3c(OC)cc(-c4ncc(C)cn4)cc3OC)noc2cc1Nc1cc(C2CC2)n[nH]1`
YES

Criterion: Ki strictly below 1 nM. Is it met by `COc1cc2c(NS(=O)(=O)c3c(OC)cc(-c4nccc(N(C)C)n4)cc3OC)noc2cc1Nc1cc(C2CC2)n[nH]1` ?
YES
